tested on: Plasmodium falciparum; test: GSK_TCMDC: Inhibition of Plasmodium falciparum Dd2 in whole red blood cells, using parasite LDH activity as an index of growth. Test compounds present at 2uM; type: functional
# key: entry, value: Inhibition
Quick reminder: number only, in %, skip the unit.

IN: Sample `c1ccc(N2CCN(c3cc(-c4cccnc4)nc(-c4ccncc4)n3)CC2)nc1` — what was its Inhibition?
OUT: 22

Others:
IN: Sample `COc1ccc2ncc(F)c(CCN3CC[C@H](NC(=O)c4ccc5c(n4)NC(=O)CS5)[C@H](O)C3)c2n1.Cl` — what was its Inhibition?
OUT: 88

IN: Sample `CCOC(=O)C(=O)N1c2ccc(OCC)cc2-c2c(ssc2=S)C1(C)C` — what was its Inhibition?
OUT: 100

IN: Sample `Cn1nc(C(F)(F)F)c(-c2ccc(F)cc2)c1NC(=O)Nc1ccccc1` — what was its Inhibition?
OUT: 99

IN: Sample `Cc1c(O)cccc1Nc1ccnc2ccc(C(F)(F)F)cc12.Cl` — what was its Inhibition?
OUT: 51

IN: Sample `O=S(=O)(Nc1ccc(CCN2CCC(N3CCCCC3)CC2)cc1)c1cccc(C(F)(F)F)c1` — what was its Inhibition?
OUT: 15

----------
system: HepG2; assay: GSK_TCMDC: Percent inhibition of human HepG2 cell line. Test compounds present at 10uM.; type: functional
Is Inhibition at least 7%? Then y. If not, n.

IN: Confirm if Inhibition reported for the molecule COc1ccccc1CN1CCC(CNC(=O)c2cc(-c3cccc(C(F)(F)F)c3)cs2)C1.O=C(O)C(F)(F)F (stereo unspecified) is 7% or above.
OUT: y

IN: Confirm if Inhibition reported for the molecule `Br.Oc1ccc(CCNCCCCCCNCCc2ccc(Cl)c3ccccc23)cc1O` is 7% or above.
OUT: y

Others:
IN: Confirm if Inhibition reported for the molecule `COc1ccc(CN2CCC(C(=O)Nc3cccc(-c4cccc(Cl)c4)c3)CC2)cc1O` is 7% or above.
OUT: y

IN: Confirm if Inhibition reported for the molecule `Cc1cc(N2Cc3ccccc3C2)nc(Nc2cccc(C#N)c2)n1` is 7% or above.
OUT: n

IN: Confirm if Inhibition reported for the molecule `O=C(Nc1ccc(-c2nc3ccc(NC(=O)c4ccc(Br)cc4)cc3[nH]2)cc1)c1ccc(Br)cc1` is 7% or above.
OUT: y

IN: Confirm if Inhibition reported for the molecule `COC(=O)c1cccc(CNCc2ccc(-c3ccc(-c4nc5cc(F)ccc5[nH]4)s3)cc2)c1.O=C(O)C(F)(F)F` is 7% or above.
OUT: n

IN: Confirm if Inhibition reported for the molecule O=C(Nc1ccccc1)NC1CCN(CCC2(c3ccc(Cl)c(Cl)c3)COCN(C(=O)c3ccccc3)C2)C1 (stereo unspecified) is 7% or above.
OUT: y

IN: Confirm if Inhibition reported for the molecule `CCN(CC)Cc1ccc2c(=O)cc(CCc3cccc(F)c3F)n(CC(=O)N(Cc3ccc(-c4ccc(C(F)(F)F)cc4)cc3)C(C)C)c2c1.O=C(O)C(O)C(O)C(=O)O` is 7% or above.
OUT: y

IN: Confirm if Inhibition reported for the molecule O=C(Nc1ccc(C(=O)OCC2CCCCC2)cc1)N[C@@H](Cc1ccc(O)cc1)C(=O)NC1CCN(Cc2ccc(O)cc2)C1.O=C(O)C(F)(F)F (stereo partly specified) is 7% or above.
OUT: n

IN: Confirm if Inhibition reported for the molecule `Cc1sc(C)c(C(F)(F)F)c1CNCCCNc1cc(=O)c2ccccc2[nH]1.Cl` is 7% or above.
OUT: n

Cited source for all entries: ChEMBL document CHEMBL1157539
